System: α-isomaltosylglucosaccharide-forming enzyme from Bacillus globisporus C11 strain
Assay: Specificity of saccharide transferring reaction acceptor, enzyme of Strain C11
Assay type: biochemical
Set-up: key: −: no saccharide-transferred product was detected through transferring reaction to acceptor; ±: a saccharide-transferred product was detected in an amount of less than one percent through transfer reaction to acceptor; +: a saccharide-transferred product was detected in an amount of at least one percent but less than ten percent through transferring reaction to acceptor; ++: a saccharide-transferred product was detected in an amount of at least ten percent through transferring reaction to acceptor
Conditions: 1.6% acceptor, 4% PINE-DEX #100 as donor, one unit/g donor, 30° C., pH 6.0, 24 hours; GLC or HPLC
endpoint name: Product of saccharide transferring reaction, Enzyme of Strain C11

[[record]]
structure_smiles = "OC[C@@H](O)[C@@H](O)[C@H](O)[C@@H](O)CO"
observed_value = "−"

[[record]]
structure_smiles = "OC[C@H]1O[C@@H]2O[C@H]3[C@H](O)[C@@H](O)[C@@H](O[C@H]4[C@H](O)[C@@H](O)[C@@H](O[C@H]5[C@H](O)[C@@H](O)[C@@H](O[C@H]6[C@H](O)[C@@H](O)[C@@H](O[C@H]7[C@H](O)[C@@H](O)[C@@H](O[C@H]8[C@H](O)[C@@H](O)[C@@H](O[C@H]9[C@H](O)[C@@H](O)[C@@H](O[C@H]1[C@H](O)[C@H]2O)O[C@@H]9CO)O[C@@H]8CO)O[C@@H]7CO)O[C@@H]6CO)O[C@@H]5CO)O[C@@H]4CO)O[C@@H]3CO"
observed_value = "−"

[[record]]
structure_smiles = "O=C[C@@H](O)[C@@H](O)[C@H](O)[C@H](O)CO"
observed_value = "−"


====

System: α-isomaltosylglucosaccharide-forming enzyme
Assay: Influence of metal ions on activity of α-isomaltosylglucosaccharide-forming enzyme (Strain C9)
Type: biochemical, Bacillus globisporus C9
Details: in the presence of 1 mM of each metal ion; None = 100
endpoint name: Relative activity (%)
# output: bare number, implied unit %

[[record]]
molecule = "[Mn+2] [Mn^2+]"
endpoint_name = "Relative activity"
observed_value = 111

[[record]]
molecule = "[Mg+2] [Mg^2+]"
endpoint_name = "Relative activity"
observed_value = 100

[[record]]
molecule = "[Ca+2] [Ca^2+]"
endpoint_name = "Relative activity"
observed_value = 115

[[record]]
molecule = "[Co+2] [Co^2+]"
endpoint_name = "Relative activity"
observed_value = 100

[[record]]
molecule = "[Cu+2] [Cu^2+]"
endpoint_name = "Relative activity"
observed_value = 15

[[record]]
molecule = "[Sr+2] [Sr^2+]"
endpoint_name = "Relative activity"
observed_value = 80

[[record]]
molecule = "O=C(O)CN(CCN(CC(=O)O)CC(=O)O)CC(=O)O [EDTA]"
endpoint_name = "Relative activity"
observed_value = 20

[[record]]
molecule = "[Pb+2] [Pb^2+]"
endpoint_name = "Relative activity"
observed_value = 103

[[record]]
molecule = "[Ba+2] [Ba^2+]"
endpoint_name = "Relative activity"
observed_value = 65

[[record]]
molecule = "[Hg+2] [Hg^2+]"
endpoint_name = "Relative activity"
observed_value = 4


Param readout= Relative activity; system= α-isomaltosylglucosaccharide-forming enzyme; entry= [Zn+2] [Zn^2+] ; returns value. 92

Param readout= Relative activity; system= α-isomaltosylglucosaccharide-forming enzyme; entry= [Al+3] [Al^3+] ; returns value. 99

The reported measurements were obtained from patent US20080241904A1.
